Biological target: ERBIN PDZ-GST fusion protein (aa. 1217-1371 of SEQ ID NO:201) (human) [GST: P08515]
Sequence (P08515 whole entry, the tested form may be a part): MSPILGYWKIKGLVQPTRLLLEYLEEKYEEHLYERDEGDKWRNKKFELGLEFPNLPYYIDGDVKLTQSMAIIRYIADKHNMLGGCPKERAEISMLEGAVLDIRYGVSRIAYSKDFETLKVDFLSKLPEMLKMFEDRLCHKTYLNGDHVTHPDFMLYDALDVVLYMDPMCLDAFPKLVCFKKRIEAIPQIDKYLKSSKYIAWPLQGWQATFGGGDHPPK
Test: competition ELISA: ERBIN PDZ-GST binding to immobilized biotin-WETWV
Where no end group is shown, it is not given here.
Exercise: for every item that follows, state its recorded pIC50.
Answers are plain numbers, as −log10 of the molar value.

Record pIC50 for all entries; do not skip any.
1. H-ETWV-OH [H1N -ETWV]
2. H-WETWV-OH [H1N -WETWV]
3. Ac-ETWV [Ac-ETWV]

[4.78, 6.70, 5.31]

Entry source: patent US20030148264A1
